- EXPERIMENT: Binding affinity to polyA-polyU dsRNA (unknown origin) assessed as change in melting temperature at 0.1 ratio of compound to RNA by spectrophotometric analysis
- Type: nucleic-acid assay
MEASURED QUANTITY: ΔTm (°C)
Give just the numeric value; °C need not be written.

# input compound: Clc1ccc2[nH]c(-c3ccc(Cn4cc(CCCc5cn(Cc6ccc(-c7nc8cc(Cl)ccc8[nH]7)o6)nn5)nn4)o3)nc2c1 ; wanted: its ΔTm 0

# input compound: CC(C)NC(=N)c1ccc2[nH]c(-c3ccc(Cn4cc(COCc5cn(Cc6ccc(-c7nc8cc(C(=N)NC(C)C)ccc8[nH]7)o6)nn5)nn4)o3)nc2c1 ; wanted: its ΔTm 1.3

# input compound: Fc1ccc2[nH]c(-c3ccc(Cn4cc(COc5ccc(OCc6cn(Cc7ccc(-c8nc9cc(F)ccc9[nH]8)o7)nn6)cc5)nn4)o3)nc2c1 ; wanted: its ΔTm 0

---

- EXPERIMENT: Binding affinity to polyA-polyU dsRNA (unknown origin) assessed as change in melting temperature at 0.1 ratio of compound to RNA by spectrophotometric analysis
- Format: nucleic-acid assay
Parameter: ΔTm. Scope: all listed entries.
Give just the numeric value; °C need not be written.

# input compound: Cl.Cl.N=C(N)c1ccc2[nH]c(-c3ccc(Cn4cc(CCCc5cn(Cc6ccc(-c7nc8cc(C(=N)N)ccc8[nH]7)o6)nn5)nn4)o3)nc2c1 ; wanted: its ΔTm 1.5

# input compound: c1ccc2[nH]c(-c3ccc(Cn4cc(COc5ccc(OCc6cn(Cc7ccc(-c8nc9ccccc9[nH]8)o7)nn6)cc5)nn4)o3)nc2c1 ; wanted: its ΔTm 0

# input compound: Cl.Cl.N=C(N)c1ccc2[nH]c(-c3ccc(Cn4cc(COc5ccc(OCc6cn(Cc7ccc(-c8nc9cc(C(=N)N)ccc9[nH]8)o7)nn6)cc5)nn4)o3)nc2c1 ; wanted: its ΔTm 0

# input compound: Fc1ccc2[nH]c(-c3ccc(Cn4cc(COCc5cn(Cc6ccc(-c7nc8cc(F)ccc8[nH]7)o6)nn5)nn4)o3)nc2c1 ; wanted: its ΔTm 1

# input compound: Cl.Cl.N=C(N)c1ccc2[nH]c(-c3ccc(Cn4cc(COCc5cn(Cc6ccc(-c7nc8cc(C(=N)N)ccc8[nH]7)o6)nn5)nn4)o3)nc2c1 ; wanted: its ΔTm 2.2

# input compound: CC(C)NC(=N)c1ccc2[nH]c(-c3ccc(Cn4cc(COc5ccc(OCc6cn(Cc7ccc(-c8nc9cc(C(=N)NC(C)C)ccc9[nH]8)o7)nn6)cc5)nn4)o3)nc2c1.Cl.Cl ; wanted: its ΔTm 0

---

- Test system: Calf thymus DNA
- EXPERIMENT: Binding affinity to calf thymus DNA assessed as change in melting temperature at compound to calf thymus DNA polynucleotide ratio of 0.1 by spectrophotometric analysis
- Format: nucleic-acid assay
- CONDITION SUMMARY: Bos taurus
Parameter: ΔTm. Scope: all listed entries.
Give just the numeric value; °C need not be written.

Consider the reported ΔTm for these compounds:
Fc1ccc2[nH]c(-c3ccc(Cn4cc(CCCc5cn(Cc6ccc(-c7nc8cc(F)ccc8[nH]7)o6)nn5)nn4)o3)nc2c1 :: 0.8
c1ccc2[nH]c(-c3ccc(Cn4cc(COCc5cn(Cc6ccc(-c7nc8ccccc8[nH]7)o6)nn5)nn4)o3)nc2c1 :: 0.6
Clc1ccc2[nH]c(-c3ccc(Cn4cc(CCCc5cn(Cc6ccc(-c7nc8cc(Cl)ccc8[nH]7)o6)nn5)nn4)o3)nc2c1 :: 2.1
Clc1ccc2[nH]c(-c3ccc(Cn4cc(COCc5cn(Cc6ccc(-c7nc8cc(Cl)ccc8[nH]7)o6)nn5)nn4)o3)nc2c1 :: 0.7
Cl.Cl.N=C(N)c1ccc2[nH]c(-c3ccc(Cn4cc(COCc5cn(Cc6ccc(-c7nc8cc(C(=N)N)ccc8[nH]7)o6)nn5)nn4)o3)nc2c1 :: 9.2

Here's the next entry for you.
# input compound: c1ccc2[nH]c(-c3ccc(Cn4cc(CCCc5cn(Cc6ccc(-c7nc8ccccc8[nH]7)o6)nn5)nn4)o3)nc2c1 ; wanted: its ΔTm 2.6

---

- System: Calf thymus DNA
- EXPERIMENT: Binding affinity to calf thymus DNA assessed as change in melting temperature at compound to calf thymus DNA polynucleotide ratio of 0.3 by spectrophotometric analysis
- Type: nucleic-acid assay
- CONDITION SUMMARY: Bos taurus
MEASURED QUANTITY: ΔTm (°C)
Give just the numeric value; °C need not be written.

Consider the reported ΔTm for these compounds:
CC(C)NC(=N)c1ccc2[nH]c(-c3ccc(Cn4cc(COc5ccc(-c6ccc(OCc7cn(Cc8ccc(-c9nc%10cc(C(=N)NC(C)C)ccc%10[nH]9)o8)nn7)cc6)cc5)nn4)o3)nc2c1 :: 2.1
CC(C)NC(=N)c1ccc2[nH]c(-c3ccc(Cn4cc(CCCc5cn(Cc6ccc(-c7nc8cc(C(=N)NC(C)C)ccc8[nH]7)o6)nn5)nn4)o3)nc2c1.Cl.Cl :: 14.5
c1ccc2[nH]c(-c3ccc(Cn4cc(CCCc5cn(Cc6ccc(-c7nc8ccccc8[nH]7)o6)nn5)nn4)o3)nc2c1 :: 1.2
CC(C)NC(=N)c1ccc2[nH]c(-c3ccc(Cn4cc(COc5ccc(OCc6cn(Cc7ccc(-c8nc9cc(C(=N)NC(C)C)ccc9[nH]8)o7)nn6)cc5)nn4)o3)nc2c1.Cl.Cl :: 11
Cl.Cl.N=C(N)c1ccc2[nH]c(-c3ccc(Cn4cc(CCCc5cn(Cc6ccc(-c7nc8cc(C(=N)N)ccc8[nH]7)o6)nn5)nn4)o3)nc2c1 :: 13
c1ccc2[nH]c(-c3ccc(Cn4cc(COc5ccc(-c6ccc(OCc7cn(Cc8ccc(-c9nc%10ccccc%10[nH]9)o8)nn7)cc6)cc5)nn4)o3)nc2c1 :: 0
Cl.Cl.N=C(N)c1ccc2[nH]c(-c3ccc(Cn4cc(COc5ccc(OCc6cn(Cc7ccc(-c8nc9cc(C(=N)N)ccc9[nH]8)o7)nn6)cc5)nn4)o3)nc2c1 :: 10.7
Fc1ccc2[nH]c(-c3ccc(Cn4cc(CCCc5cn(Cc6ccc(-c7nc8cc(F)ccc8[nH]7)o6)nn5)nn4)o3)nc2c1 :: 1.3
Clc1ccc2[nH]c(-c3ccc(Cn4cc(COCc5cn(Cc6ccc(-c7nc8cc(Cl)ccc8[nH]7)o6)nn5)nn4)o3)nc2c1 :: 1.2
Cl.Cl.c1cc(OCc2cn(Cc3ccc(-c4nc5cc(C6=NCCN6)ccc5[nH]4)o3)nn2)ccc1OCc1cn(Cc2ccc(-c3nc4cc(C5=NCCN5)ccc4[nH]3)o2)nn1 :: 8.9

# input compound: Fc1ccc2[nH]c(-c3ccc(Cn4cc(COc5ccc(OCc6cn(Cc7ccc(-c8nc9cc(F)ccc9[nH]8)o7)nn6)cc5)nn4)o3)nc2c1 ; wanted: its ΔTm 1.2

# input compound: Cl.Cl.N=C(N)c1ccc2[nH]c(-c3ccc(Cn4cc(COCc5cn(Cc6ccc(-c7nc8cc(C(=N)N)ccc8[nH]7)o6)nn5)nn4)o3)nc2c1 ; wanted: its ΔTm 10.4

---

Parameter: Ratio. Scope: all listed entries.
- EXPERIMENT: Ratio of compound concentration to polynucleotide phosphate concentration for binding affinity to polyA-polyU dsRNA (unknown origin)
- Format: nucleic-acid assay
API note: the answer field is a bare number with no unit suffix.

c1ccc2[nH]c(-c3ccc(Cn4cc(COCc5cn(Cc6ccc(-c7nc8ccccc8[nH]7)o6)nn5)nn4)o3)nc2c1 :: 0.31
Clc1ccc2[nH]c(-c3ccc(Cn4cc(COCc5cn(Cc6ccc(-c7nc8cc(Cl)ccc8[nH]7)o6)nn5)nn4)o3)nc2c1 :: 0.19
Fc1ccc2[nH]c(-c3ccc(Cn4cc(COCc5cn(Cc6ccc(-c7nc8cc(F)ccc8[nH]7)o6)nn5)nn4)o3)nc2c1 :: 0.35

Here's the next entry for you.
# input compound: Clc1ccc2[nH]c(-c3ccc(Cn4cc(CCCc5cn(Cc6ccc(-c7nc8cc(Cl)ccc8[nH]7)o6)nn5)nn4)o3)nc2c1 ; wanted: its Ratio 0.5

---

Parameter: log Ks. Scope: all listed entries.
- Tested on: Calf thymus DNA
- EXPERIMENT: Binding affinity to calf thymus DNA by UV-vis spectrophotometric method
- Assay type: nucleic-acid assay
- CONDITION SUMMARY: Bos taurus
API note: the answer field is a bare number with no unit suffix.

Cl.Cl.c1cc2[nH]c(-c3ccc(Cn4cc(CCCc5cn(Cc6ccc(-c7nc8cc(C9=NCCN9)ccc8[nH]7)o6)nn5)nn4)o3)nc2cc1C1=NCCN1 :: 7.62
Clc1ccc2[nH]c(-c3ccc(Cn4cc(COc5ccc(-c6ccc(OCc7cn(Cc8ccc(-c9nc%10cc(Cl)ccc%10[nH]9)o8)nn7)cc6)cc5)nn4)o3)nc2c1 :: 4
c1ccc2[nH]c(-c3ccc(Cn4cc(COc5ccc(-c6ccc(OCc7cn(Cc8ccc(-c9nc%10ccccc%10[nH]9)o8)nn7)cc6)cc5)nn4)o3)nc2c1 :: 4
Fc1ccc2[nH]c(-c3ccc(Cn4cc(COc5ccc(OCc6cn(Cc7ccc(-c8nc9cc(F)ccc9[nH]8)o7)nn6)cc5)nn4)o3)nc2c1 :: 5.92
c1ccc2[nH]c(-c3ccc(Cn4cc(COCc5cn(Cc6ccc(-c7nc8ccccc8[nH]7)o6)nn5)nn4)o3)nc2c1 :: 6.22

Here's the next entry for you.
# input molecule: Fc1ccc2[nH]c(-c3ccc(Cn4cc(COCc5cn(Cc6ccc(-c7nc8cc(F)ccc8[nH]7)o6)nn5)nn4)o3)nc2c1 ; wanted: its log Ks 5.93
